What Neutralization (ng/mL), Pseudovirus IC50 was measured for each of the following?
Biological target: SARS-CoV-2 Spike as carried on rVSV-SARS-CoV-2 pseudovirus and authentic WT virus (SARS-CoV-2, UniProt P0DTC2 14-1273)
Experiment: cell-based or functional assay
Write the answer as a number in ng/mL, unit excluded.

Q: Output Neutralization (ng/mL), Pseudovirus IC50 of AB-9 full-length IgG1 (antibody, V domains shown) VH: EVQLEESGTVLARPGASVKMSCKASGYTFTSYWMHWIKQRPGQGLEWIGAIYPGNSDTNYNQKFKDKAKLTAVTSTSSAYMELSSLTNEDSAVYFCTREGIPQLLRTLDYWGQGTSVTVSS VL: DILMTQSPSSLSASLGERVSLTCRASQEISGYLSWLQEKPDGTIKRLIYAASTLDSGVPKRFSGSRSGSDYSLTISSLESEDFADYYCLQYLSYPWTFGGGTKLEIK
Result: 0.824

Q: Output Neutralization (ng/mL), Pseudovirus IC50 of AB-6 full-length IgG1 (antibody, V domains shown) VH: EVQLEESGTVLARPGASVKMSCKASGYTFTSYWMHWIKQRPGQGLEWIGAIYPGNSDTNYNQKFKDKAKLTAVKSTSSAYMELSSLTNEDSAVYFCTREGIPQLTRTLDYWGQGTSVTVSS VL: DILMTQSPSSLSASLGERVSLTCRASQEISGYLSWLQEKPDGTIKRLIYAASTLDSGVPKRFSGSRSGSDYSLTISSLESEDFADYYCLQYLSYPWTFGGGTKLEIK
Result: 6.15

Q: Output Neutralization (ng/mL), Pseudovirus IC50 of AB-1 full-length IgG1 (antibody, V domains shown) VH: EVQLEESGTVLARPGASVKMSCKASGYTFTTYWMHWIKQRPGQGLEWIGAIYPGNSDTQYNQKFKDKAKLTAVKSTSSAYMELSSLTNEDSAVYFCTREGIPQLLRTLDYWGQGTSVTVSS VL: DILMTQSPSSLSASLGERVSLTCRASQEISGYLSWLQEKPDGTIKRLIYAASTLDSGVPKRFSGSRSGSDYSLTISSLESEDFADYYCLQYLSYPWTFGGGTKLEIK
Result: 0.0782

Recorded values, source patent US12473560.
